- Test system: SK-MEL-28 melanoma
- EXPERIMENT_SUMMARY: NCI tumour cell line growth inhibition, 48 h
Quick reference: TGI of the listed items.
All answers are understood in µM, so give the number only.

Consider the following illustrative entries.
- MOLECULE: "O=C1OC(CCCN2CCCCC2)(c2ccccc2)CC12CCCC2 (centres undefined)"
  QUANTITATIVE_READOUT: 57
- MOLECULE: "CNC(=O)OCc1c(COC(=O)NC)c(-c2ccc(-c3ccccc3)cc2)n(C)c1C"
  QUANTITATIVE_READOUT: 28.7

Q. Record C[C@]12CCc3sc(Nc4ccc(OC(F)(F)F)cc4)nc3C1=CC[C@@H]1[C@@H]2CC[C@]2(C)C(=O)CC[C@@H]12 : what is its TGI with SK-MEL-28 melanoma?
A. 7.98

Q. Which TGI is reported with SK-MEL-28 melanoma for this entry: O=C1C(=O)c2ccccc2C(O)=C1C(C1=C(O)c2ccccc2C(=O)C1=O)c1ccc(Cl)cc1 ?
A. 55.5

Q. Lab note: need TGI for COc1cccc2c1C(=N)c1c(O)c3c(c(O)c1C2=O)C[C@@](O)(C(C)=O)C[C@@H]3O[C@H]1C[C@H](N)[C@H](O)[C@H](C)O1 on SK-MEL-28 melanoma, anyone have it?
A. 13.9

* * *

- Test system: SK-MEL-28 melanoma
- EXPERIMENT_SUMMARY: NCI tumour cell line growth inhibition, 48 h; in the data active means GI50 below about 0.43 µM; inactive means the rest
Outcome field: choose from y for active, n for inactive

Look over these answered cases.
- COMPOUND: "CCN1C(=O)/C(=C/c2c(Cl)[nH]c3cc(C)c(OC)cc23)c2ccccc21"
  GROUP_LABEL: "n"
- COMPOUND: "[N-]=[N+]=NCCCn1c2c(c3ccc([N+](=O)[O-])cc3c1=O)C(=O)c1ccccc1-2"
  GROUP_LABEL: "n"
- COMPOUND: "CC/C=C\\C[C@H]1CC=C2C(=O)C=C[C@@H]2CC=CCCCC(=O)O[C@@H](CCCCC)CC=C2C(=O)C=C[C@@H]2CC=CCCCC(=O)O[C@@H](CCCCC)CC=C2C(=O)C=C[C@@H]2CC=CCCCC(=O)O[C@@H](CCCCC)CC=C2C(=O)C=C[C@@H]2CC=CCCCC(=O)O1"
  GROUP_LABEL: "n"

Q. Hey, what did the test say about CN(C)C/C=C/C(=O)Nc1ccc(C(=O)N[C@@]2(C)CCC[C@@H](Nc3ncc(Cl)c(-c4c[nH]c5ccccc45)n3)C2)nc1 ?
A. y

Q. Tell me the recorded outcome of this test for COC(=O)c1ccc2[nH]c(O)c(C(=Nc3ccc(N(C)C(=O)CN4CCN(C)CC4)cc3)c3ccc4c(c3)OCO4)c2c1 .
A. n

Q. // return assay outcome for CC(=O)OC1OC([C@H]2c3cccc(O)c3C(=O)c3c(O)cc(C)cc32)C(O)C(O)C1O (stereo partly drawn)
A. y

Q. How was O=C(/C=C/c1ccccc1)Nc1ncc(Cc2ccccc2Cl)s1 classified in this test?
A. n

Q. Could you check what this test reported for Cc1cn(-c2cc(NC(=O)c3cccc(C#Cc4cccc5[nH]nc(N)c45)c3)cc(C(F)(F)F)c2)cn1 ?
A. n

Q. I'd appreciate the recorded outcome for COc1ccc2c(c1)C(=O)CCc1cc(OC)c(OC)c(OC)c1-2 from this test.
A. n

Q. // param item: N/N=C\c1c2ccccc2c(=O)n2c1oc1ccccc12 ; yields the recorded call
A. n

Q. State the result this test recorded for O=C1NC(=S)S/C1=C/c1ccc2c(c1)OCO2 .
A. n

Q. Dear colleague, could you share the recorded outcome for CCN(CC)CCNC(Cc1ccccc1)c1ccc(OCc2ccccc2)cc1 (stereo not drawn) when you have a moment?
A. n

Q. I'd appreciate the recorded outcome for C#CC1(O)C(COP(=O)(O)OCC(COP(=O)(O)OCC2OC(n3cc(F)c(=O)[nH]c3=O)CC2O)OCCCCCCCCCCCCCCCCCC)OC(n2ccc(N)nc2=O)C1O (stereo not drawn) from this test.
A. n

Source: PubChem BioAssay (NCI)
